Activity overview
target: Delta-type opioid receptor (Homo sapiens) (UniProt P41143); assay: Displacement of [3H]-DPDPE from human delta opioid receptor expressed in CHO-K1 cell membranes at 10 uM incubated for 60 mins by TopCount scintillation counting method relative to control; conditions: Membrane
Sequence (P41143 whole entry): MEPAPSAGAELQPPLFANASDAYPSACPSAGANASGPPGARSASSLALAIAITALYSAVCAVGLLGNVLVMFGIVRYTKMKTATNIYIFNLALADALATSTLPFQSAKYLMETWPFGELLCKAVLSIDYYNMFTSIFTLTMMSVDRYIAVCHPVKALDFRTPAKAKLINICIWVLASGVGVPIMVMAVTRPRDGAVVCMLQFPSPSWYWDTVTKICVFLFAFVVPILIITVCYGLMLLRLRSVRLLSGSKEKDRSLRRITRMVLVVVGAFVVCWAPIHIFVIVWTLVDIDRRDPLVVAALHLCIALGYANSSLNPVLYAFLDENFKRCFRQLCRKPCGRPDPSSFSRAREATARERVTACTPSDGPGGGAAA
Kindly answer with a numeric value in %, unit omitted.

Example entries begin here.
test_smiles: COc1cc2c(c(O)c1C)C(=O)[C@@]1(O)c3cccc(O)c3OC[C@@H]1O2
system: Delta-type opioid receptor (Homo sapiens) (UniProt P41143)
Activity, %: 26.3
--
test_smiles: COc1c(C)c(O)c2c(c1C)O[C@H]1[C@H](OC)Oc3c(O)cccc3[C@]1(O)C2=O
system: Delta-type opioid receptor (Homo sapiens) (UniProt P41143)
Activity, %: 31.6
--
test_smiles: COc1cc2c(c(O)c1C)C(=O)[C@@]1(O)c3cccc(OC)c3O[C@@H](OC)[C@@H]1O2
system: Delta-type opioid receptor (Homo sapiens) (UniProt P41143)
Activity, %: 12.3
--
test_smiles: COc1c(C)c(O)c2c(c1C)O[C@H]1COc3c(O)cccc3[C@]1(O)C2=O
system: Delta-type opioid receptor (Homo sapiens) (UniProt P41143)
Activity, %: 15.2
--
test_smiles: COc1cc2c(c(O)c1C)C(=O)[C@@]1(O)c3cccc(O)c3O[C@@H](OC)[C@@H]1O2
system: Delta-type opioid receptor (Homo sapiens) (UniProt P41143)
Activity, %: 20.1

Supply recorded Activity for `CO[C@@H]1Oc2ccccc2-c2c1oc1cc(O)c(C)c(O)c1c2=O` here. 24.5

---

molecular target: UniProtKB P21554; assay: Displacement of [3H]-CP-55,940 from full-length recombinant human CB1R expressed in CHO-K1 cell membranes at 10 uM incubated for 90 mins by TopCount scintillation counting method relative to control; settings: Membrane
Sequence (P21554 whole entry): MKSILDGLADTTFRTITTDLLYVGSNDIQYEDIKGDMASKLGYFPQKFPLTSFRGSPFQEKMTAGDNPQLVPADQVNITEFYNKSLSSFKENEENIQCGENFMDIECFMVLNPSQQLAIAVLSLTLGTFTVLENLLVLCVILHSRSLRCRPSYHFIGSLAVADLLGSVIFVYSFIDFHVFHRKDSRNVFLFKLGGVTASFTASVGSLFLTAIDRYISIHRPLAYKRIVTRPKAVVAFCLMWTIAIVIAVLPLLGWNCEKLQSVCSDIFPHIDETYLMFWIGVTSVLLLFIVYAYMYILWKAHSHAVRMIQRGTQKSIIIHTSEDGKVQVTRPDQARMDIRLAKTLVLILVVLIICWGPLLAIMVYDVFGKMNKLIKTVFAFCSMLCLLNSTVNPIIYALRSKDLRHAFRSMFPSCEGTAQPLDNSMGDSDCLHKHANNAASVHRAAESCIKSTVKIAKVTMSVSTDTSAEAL
Activity calls are given as the source filed them. The calls are words filed in the database; no cut-off is given here.
measurement_name: Activity

test_smiles: COc1cc2c(c(O)c1C)C(=O)[C@@]1(O)c3cccc(O)c3O[C@@H](OC)[C@@H]1O2
system: UniProtKB P21554
Activity: 42.2%
//
test_smiles: CO[C@@H]1Oc2ccccc2-c2c1oc1cc(O)c(C)c(O)c1c2=O
system: UniProtKB P21554
Activity: inactive
//
test_smiles: COc1cc2c(c(O)c1C)C(=O)[C@@]1(O)c3cccc(O)c3OC[C@@H]1O2
system: UniProtKB P21554
Activity: inactive
//
test_smiles: COc1c(C)c(O)c2c(c1C)O[C@H]1COc3c(O)cccc3[C@]1(O)C2=O
system: UniProtKB P21554
Activity: inactive
//
test_smiles: COc1cc2c(c(O)c1C)C(=O)[C@@]1(O)c3cccc(OC)c3O[C@@H](OC)[C@@H]1O2
system: UniProtKB P21554
Activity: inactive

Here's the next entry for you.
Supply recorded Activity for `COc1c(C)c(O)c2c(c1C)O[C@H]1[C@H](OC)Oc3c(O)cccc3[C@]1(O)C2=O` here. 17%

---

molecular target: Cannabinoid receptor 2 (Homo sapiens) (UniProt P34972); assay: Displacement of [3H]-CP-55,940 from full-length recombinant human CB2R expressed in CHO-K1 cell membranes at 10 uM incubated for 90 mins by TopCount scintillation counting method relative to control; details: Membrane
Sequence (P34972 whole entry): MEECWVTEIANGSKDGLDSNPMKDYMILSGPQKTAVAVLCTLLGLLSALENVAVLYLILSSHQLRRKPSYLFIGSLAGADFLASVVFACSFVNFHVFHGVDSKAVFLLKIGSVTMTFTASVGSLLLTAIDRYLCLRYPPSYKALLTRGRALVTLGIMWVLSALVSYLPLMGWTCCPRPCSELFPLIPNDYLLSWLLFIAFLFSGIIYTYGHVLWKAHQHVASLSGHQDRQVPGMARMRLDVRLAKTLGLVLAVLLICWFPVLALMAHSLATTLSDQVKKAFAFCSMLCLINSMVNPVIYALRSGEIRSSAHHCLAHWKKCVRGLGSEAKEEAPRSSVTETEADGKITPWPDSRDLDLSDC
Active and inactive are the calls of the source. The calls are words filed in the database; no cut-off is given here.
measurement_name: Activity

Example entries begin here.
test_smiles: CO[C@@H]1Oc2ccccc2-c2c1oc1cc(O)c(C)c(O)c1c2=O
measurement_name: Activity
result: inactive
//
test_smiles: COc1c(C)c(O)c2c(c1C)O[C@H]1COc3c(O)cccc3[C@]1(O)C2=O
measurement_name: Activity
result: inactive
//
test_smiles: COc1cc2c(c(O)c1C)C(=O)[C@@]1(O)c3cccc(O)c3OC[C@@H]1O2
measurement_name: Activity
result: inactive
//
test_smiles: COc1c(C)c(O)c2c(c1C)O[C@H]1[C@H](OC)Oc3c(O)cccc3[C@]1(O)C2=O
measurement_name: Activity
result: inactive
//
test_smiles: COc1cc2c(c(O)c1C)C(=O)[C@@]1(O)c3cccc(OC)c3O[C@@H](OC)[C@@H]1O2
measurement_name: Activity
result: 5.4%

Supply recorded Activity for `COc1cc2c(c(O)c1C)C(=O)[C@@]1(O)c3cccc(O)c3O[C@@H](OC)[C@@H]1O2` here. 7.4%
